These entries and their values trace back to ChEMBL document CHEMBL1275379.

assay: Drug level in tumor tissue of human A375 cells xenografted nude mouse at 25 mg/kg, po after 24 hrs; format: ADME, organism-based, Neoplasm, A-375; design: dose 25 mg/kg, route oral; conditions: read-out: Drug uptake
ATTRIBUTE_MEASURED: concentration at 24 h (µM)
Could you give me the number in µM? Just the number is fine.

Specify reported concentration at 24 h for the compound shown: CN1C[C@@H]2C[C@H]1CN2c1cc(F)c(-c2ccnc3c(-c4cccc5[nH]ncc45)c(-c4ccncc4)nn23)c(F)c1
6.1

* * *

experiment: AUC (infinity) in nude mouse at 10 mg/kg, po; assay type: ADME, organism-based; set-up: time infinity, dose 10 mg/kg, route oral; details: plasma
ATTRIBUTE_MEASURED: AUC(0-inf) (ng·h/mL)
Could you give me the number in ng·h/mL? Just the number is fine.

Specify reported AUC(0-inf) for the compound shown: CN1C[C@@H]2C[C@H]1CN2c1cc(F)c(-c2ccnc3c(-c4cccc5[nH]ncc45)c(-c4ccncc4)nn23)c(F)c1
4000

* * *

system: A-375; test: Growth inhibition of human A375 cells after 4 days by MTT assay; assay type: functional, cell-based; conditions: A-375, 96 h
ATTRIBUTE_MEASURED: pIC50
Scale note: pIC50 = -log10(concentration in M).

Use the examples below as a reference point.
TEST_SMILES: CN1C[C@@H]2C[C@H]1CN2c1ccc(-c2ccnc3c(-c4cccc5[nH]ncc45)c(-c4ccncc4)nn23)c(Cl)c1
EXPERIMENTAL_RESULT: 7.41

TEST_SMILES: CCN1C[C@@H]2C[C@H]1CN2c1cc(F)c(-c2ccnc3c(-c4cccc5[nH]ncc45)c(-c4ccncc4)nn23)c(F)c1
EXPERIMENTAL_RESULT: 7.25

TEST_SMILES: CN1C[C@@H]2C[C@H]1CN2c1ccc(-c2ccnc3c(-c4cccc(O)c4)c(-c4ccncc4)nn23)cc1
EXPERIMENTAL_RESULT: 7.11

Then there is this compound:
Specify reported pIC50 for the compound shown: Fc1cc(CN2C[C@H]3C[C@@H]2CO3)ccc1-c1ccnc2c(-c3cccc4[nH]ncc34)c(-c3ccncc3)nn12
7.11

* * *

test: Drug level in plasma of human A375 cells xenografted nude mouse at 25 mg/kg, po after 24 hrs; format: ADME, organism-based, A-375; parameters: dose 25 mg/kg, route oral; details: read-out: Drug uptake
ATTRIBUTE_MEASURED: concentration at 24 h (nM)
Could you give me the number in nM? Just the number is fine.

Specify reported concentration at 24 h for the compound shown: CN1C[C@@H]2C[C@H]1CN2c1cc(F)c(-c2ccnc3c(-c4cccc5[nH]ncc45)c(-c4ccncc4)nn23)c(F)c1
60

* * *

molecular target: Angiopoietin-1 receptor (Homo sapiens, UniProt Q02763)
Sequence (Q02763 whole entry): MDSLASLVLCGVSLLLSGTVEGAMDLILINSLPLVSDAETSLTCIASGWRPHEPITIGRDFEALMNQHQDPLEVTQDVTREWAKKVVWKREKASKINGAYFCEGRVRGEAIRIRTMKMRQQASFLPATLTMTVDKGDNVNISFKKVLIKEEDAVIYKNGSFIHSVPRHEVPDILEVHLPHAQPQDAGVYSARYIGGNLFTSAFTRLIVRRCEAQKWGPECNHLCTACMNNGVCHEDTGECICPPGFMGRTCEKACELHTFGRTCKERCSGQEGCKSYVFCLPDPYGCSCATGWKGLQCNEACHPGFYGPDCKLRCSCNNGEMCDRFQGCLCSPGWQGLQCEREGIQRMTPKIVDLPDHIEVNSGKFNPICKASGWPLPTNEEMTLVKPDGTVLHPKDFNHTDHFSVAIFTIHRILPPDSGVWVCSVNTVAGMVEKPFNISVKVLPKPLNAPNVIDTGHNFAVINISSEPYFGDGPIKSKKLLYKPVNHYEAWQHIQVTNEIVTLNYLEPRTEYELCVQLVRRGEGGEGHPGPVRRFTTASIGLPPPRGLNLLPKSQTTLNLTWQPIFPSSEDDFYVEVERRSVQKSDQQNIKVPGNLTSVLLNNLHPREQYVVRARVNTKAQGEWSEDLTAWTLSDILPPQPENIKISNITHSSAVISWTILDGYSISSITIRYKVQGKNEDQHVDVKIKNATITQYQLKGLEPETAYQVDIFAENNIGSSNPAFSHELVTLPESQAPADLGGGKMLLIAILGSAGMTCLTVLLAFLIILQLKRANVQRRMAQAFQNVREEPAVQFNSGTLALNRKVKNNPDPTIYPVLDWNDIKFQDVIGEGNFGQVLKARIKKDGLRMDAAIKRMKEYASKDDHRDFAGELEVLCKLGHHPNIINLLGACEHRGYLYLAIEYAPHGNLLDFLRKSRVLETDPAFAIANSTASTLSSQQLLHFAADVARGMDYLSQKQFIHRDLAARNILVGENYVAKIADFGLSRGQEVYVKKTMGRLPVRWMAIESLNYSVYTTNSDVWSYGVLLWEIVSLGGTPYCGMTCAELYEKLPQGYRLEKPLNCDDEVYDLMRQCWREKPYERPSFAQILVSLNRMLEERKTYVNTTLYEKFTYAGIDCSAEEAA
ATTRIBUTE_MEASURED: pIC50
Scale note: pIC50 = -log10(concentration in M).

Specify reported pIC50 for the molecule shown: CN1C[C@@H]2C[C@H]1CN2c1cc(F)c(-c2ccnc3c(-c4cccc5[nH]ncc45)c(-c4ccncc4)nn23)c(F)c1
6.53
